Reported pKd, (GTP)K‐Ras4B (Homo sapiens, UniProt P01116).
On this scale, pKd is minus log10 of a concentration expressed in M (mol/L).

# returns recorded pKd (system: (GTP)K‐Ras4B (Homo sapiens, UniProt P01116)) for Oc1ccc(C(=NOCc2ccccc2)c2ccc(O)cc2)cc1 [compound 11]
# Sequence (P01116 1-188 isoform P01116-2): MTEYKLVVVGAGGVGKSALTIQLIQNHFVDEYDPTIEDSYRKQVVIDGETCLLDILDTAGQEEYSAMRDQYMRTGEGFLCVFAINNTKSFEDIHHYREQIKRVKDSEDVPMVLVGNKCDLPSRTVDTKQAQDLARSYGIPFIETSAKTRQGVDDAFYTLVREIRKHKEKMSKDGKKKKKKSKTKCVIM
3.22

# returns recorded pKd (system: (GTP)K‐Ras4B (Homo sapiens, UniProt P01116)) for O=C(c1nc2cccc(O)c2[nH]1)c1cc2cccc(O)c2o1 [compound 12]
4.47

---

Experimental System: K‐Ras wild type protein (Homo sapiens, UniProt P01116)
Sequence (P01116 1-188 isoform P01116-2): as above
Label key: YES means IC50 under 1000 µM; NO means IC50 of 1000 µM or more.

// below: answered compounds
[
  {
    "Compound": "N#Cc1ccc(S(=O)(=O)NN=C(c2ccc(O)cc2)c2ccc(O)cc2)cc1 [8 g]",
    "Assigned Label": "NO"
  },
  {
    "Compound": "Oc1ccc(C(=NNc2ccccn2)c2ccc(O)cc2)cc1 [7 f]",
    "Assigned Label": "NO"
  },
  {
    "Compound": "O=[N+]([O-])c1ccc(NN=C(c2ccc(O)cc2)c2ccc(O)cc2)c([N+](=O)[O-])c1 [7 a]",
    "Assigned Label": "YES"
  },
  {
    "Compound": "COc1ccc(S(=O)(=O)NN=C(c2ccc(O)cc2)c2ccc(O)cc2)cc1 [8 b]",
    "Assigned Label": "NO"
  },
  {
    "Compound": "Oc1ccc(C(=NNc2ccc(F)cc2)c2ccc(O)cc2)cc1 [7 c]",
    "Assigned Label": "NO"
  }
]

Lab log: compare recorded IC50 with 1000 µM; is it strictly lower for Oc1ccc(C(=NNc2ccc(C(F)(F)F)cc2)c2ccc(O)cc2)cc1 [7 e] ?
NO

Lab log: compare recorded IC50 with 1000 µM; is it strictly lower for O=S(=O)(NN=C(c1ccc(O)cc1)c1ccc(O)cc1)c1ccc(Br)cc1 [8 d] ?
NO

Lab log: compare recorded IC50 with 1000 µM; is it strictly lower for Oc1ccc(C(=NNc2ccc(Cl)cc2)c2ccc(O)cc2)cc1 [7 d] ?
NO

Lab log: compare recorded IC50 with 1000 µM; is it strictly lower for O=S(=O)(NN=C(c1ccc(O)cc1)c1ccc(O)cc1)c1ccc(OC(F)(F)F)cc1 [8 f] ?
NO

Lab log: compare recorded IC50 with 1000 µM; is it strictly lower for O=C(c1nc2cccc(O)c2[nH]1)c1cc2cccc(O)c2o1 [compound 12] ?
NO

Lab log: compare recorded IC50 with 1000 µM; is it strictly lower for O=[N+]([O-])c1ccc(S(=O)(=O)NN=C(c2ccc(O)cc2)c2ccc(O)cc2)cc1 [8 e] ?
YES

Lab log: compare recorded IC50 with 1000 µM; is it strictly lower for O=C(NN=C(c1ccc(O)cc1)c1ccc(O)cc1)c1ccccc1 [compound 10] ?
NO

Lab log: compare recorded IC50 with 1000 µM; is it strictly lower for O=C(c1nc2cc(O)ccc2[nH]1)c1cc2cccc(O)c2o1 [compound 13] ?
YES

Lab log: compare recorded IC50 with 1000 µM; is it strictly lower for O=C(c1ccc(O)cc1)c1ccc(O)cc1 [compound 9, 4,4’‐Dihydroxybenzophenone, reference compound] ?
NO

Lab log: compare recorded IC50 with 1000 µM; is it strictly lower for Oc1ccc(C(=NOCc2ccccc2)c2ccc(O)cc2)cc1 [compound 11] ?
NO

Lab log: compare recorded IC50 with 1000 µM; is it strictly lower for O=S(=O)(NN=C(c1ccc(O)cc1)c1ccc(O)cc1)c1ccc(Cl)cc1 [8 c] ?
NO

Taken from paper PMC9826232.
